Measured EtCO2 values are reported for all entries that follow.
assay: End-tidal gas analysis; format: in vivo, rabbit; details: Memory
observable: EtCO2 (mmHg)

- compound: "FC(F)OC(Cl)C(F)(F)F (stereo not shown)"
  observable: "EtCO2"
  unitOfMeasure: "mmHg"
  recordedResult: 33
- compound: "FCOC(C(F)(F)F)C(F)(F)F"
  observable: "EtCO2"
  unitOfMeasure: "mmHg"
  recordedResult: 36
- compound: "FC(F)OC(F)C(F)(F)F (stereo not shown)"
  observable: "EtCO2"
  unitOfMeasure: "mmHg"
  recordedResult: 28
- compound: "FC(F)OC(F)(F)C(F)Cl (stereo not shown)"
  observable: "EtCO2"
  unitOfMeasure: "mmHg"
  recordedResult: 34

* * *

assay: Systemic hemodynamics during infarct experiment; type: in vivo, rabbit; settings: Infusion

- compound: "FC(F)OC(F)(F)C(F)Cl (stereo not shown) [ENF, enflurane]"
  RPP / bpm × mmHg × 10^3: 18.9
- compound: "FC(F)OC(Cl)C(F)(F)F (stereo not shown) [ISO, isoflurane]"
  RPP / bpm × mmHg × 10^3: 16.2
- compound: "FCOC(C(F)(F)F)C(F)(F)F [SEVO, sevoflurane]"
  RPP / bpm × mmHg × 10^3: 23.7
- compound: "FC(F)OC(F)C(F)(F)F (stereo not shown) [DES, desflurane]"
  RPP / bpm × mmHg × 10^3: 20.4

* * *

assay: Arterial blood gas analysis; type: in vivo, rabbit; details: Infusion

- molecule: "FC(F)OC(Cl)C(F)(F)F (stereo not shown) [ISO, isoflurane]"
  PaO2, mmHg: 124
- molecule: "FCOC(C(F)(F)F)C(F)(F)F [SEVO, sevoflurane]"
  PaO2, mmHg: 118
- molecule: "FC(F)OC(F)(F)C(F)Cl (stereo not shown) [ENF, enflurane]"
  PaO2, mmHg: 130
- molecule: "FC(F)OC(F)C(F)(F)F (stereo not shown) [DES, desflurane]"
  PaO2, mmHg: 157

* * *

assay: Systemic hemodynamics during infarct experiment; assay type: in vivo, rabbit; conditions: Reperfusion 1 h
Measured MAP values are reported for all entries that follow.
observable: MAP (mmHg)

- molecule: "FC(F)OC(F)C(F)(F)F (stereo not shown)"
  recordedResult: 54
- molecule: "FCOC(C(F)(F)F)C(F)(F)F"
  recordedResult: 65
- molecule: "FC(F)OC(Cl)C(F)(F)F (stereo not shown)"
  recordedResult: 52
- molecule: "FC(F)OC(F)(F)C(F)Cl (stereo not shown)"
  recordedResult: 65

* * *

test: Arterial blood gas analysis; type: in vivo, rabbit; conditions: Reperfusion 3 h
Measured PaO2 values are reported for all entries that follow.

- compound: "FC(F)OC(F)(F)C(F)Cl (stereo not shown)"
  PaO2 / mmHg: 131
- compound: "FC(F)OC(F)C(F)(F)F (stereo not shown)"
  PaO2 / mmHg: 165
- compound: "FCOC(C(F)(F)F)C(F)(F)F"
  PaO2 / mmHg: 121
- compound: "FC(F)OC(Cl)C(F)(F)F (stereo not shown)"
  PaO2 / mmHg: 160

* * *

Measured EtCO2 values are reported for all entries that follow.
test: End-tidal gas analysis; assay type: in vivo, rabbit; conditions: Reperfusion 1 h
observable: EtCO2 (mmHg)

- molecule: "FC(F)OC(F)(F)C(F)Cl (stereo not shown)"
  recordedResult: 33
- molecule: "FC(F)OC(Cl)C(F)(F)F (stereo not shown)"
  recordedResult: 27
- molecule: "FCOC(C(F)(F)F)C(F)(F)F"
  recordedResult: 34
- molecule: "FC(F)OC(F)C(F)(F)F (stereo not shown)"
  recordedResult: 29
